Target: T1, human IL-8 (human, UniProt P10145 23-99, limits assumed)
T1 construct: also called hIL-8; hIL8
T1 sequence (P10145 23-99 limits assumed): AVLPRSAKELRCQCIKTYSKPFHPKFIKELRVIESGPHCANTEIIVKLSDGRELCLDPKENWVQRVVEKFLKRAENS
Assay: SPR Biacore T200, Protein A/G capture, pH 7.4, 40C;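 further: antibodies captured via Protein A/G, which was amine-coupled to a CM4 sensor chip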
pKd: −log10 of the molar value.

binder	pKd
H1022/L0395 (antibody, human IgG1, kappa, name in Kabat numbering, V domains shown) VH: QVQLVESGGGLVQPGGSLRLSCAASGFTFSDYYLSWVRQAPGKGLEWVGLIRNKDNHHHPEYSASVKGRFTISRDDSKNSLYLTMSDLKTEDTAVYYCARENHRYDVELAYWGQGTLVTVSS VL: DIQMTQSPSSLSASVGDRVTITCRASEIIYSYLAWYQQKPGKAPKLLIYKAKTHADGVPSRFSGSGSGTDFTFTISSLQPEDIATYYCKHHFGFPRTFGQGTKVEIKR	9.57
H1028/L0395 (antibody, human IgG1, kappa, name in Kabat numbering, V domains shown) VH: QVQLVESGGGLVQPGGSLRLSCAASGFTFSDYYLSWVRQAPGKGLEWVGLIRNKDNYHHPEYSASVKGRFTISRDDSKNSLYLTMSDLKTEDTAVYYCARENHRYDVELAYWGQGTLVTVSS VL: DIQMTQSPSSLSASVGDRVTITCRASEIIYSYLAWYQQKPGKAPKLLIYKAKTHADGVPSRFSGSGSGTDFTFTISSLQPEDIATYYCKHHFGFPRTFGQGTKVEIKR	9.74
H1041/L0395 (antibody, human IgG1, kappa, name in Kabat numbering, V domains shown) VH: QVQLVESGGGLVQPGGSLRLSCAASGFTFSEYYLSWVRQAPGKGLEWVGLIRNKDNGYHPEYSASVKGRFTISRDDSKNSLYLTMSDLKTEDTAVYYCARENHRYDVELAYWGQGTLVTVSS VL: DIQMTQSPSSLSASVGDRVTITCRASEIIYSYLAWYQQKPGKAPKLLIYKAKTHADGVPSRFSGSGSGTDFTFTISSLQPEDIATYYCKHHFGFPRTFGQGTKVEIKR	10.10
